system: Plasmodium falciparum; assay: GSK_TCMDC: Inhibition of Plasmodium falciparum 3D7 in whole red blood cells, using parasite LDH activity as an index of growth. Test compounds present at 2uM; type: functional
value_type: Inhibition (%)
# unit: % | format: bare number

Requested read-out: Inhibition. Entry: `COc1ccc(NC(=O)c2cc(NC(=O)C3(N)CC3)c(=O)n(Cc3ccc(C(N)=O)cc3)c2)cc1.O=C(O)C(F)(F)F`
95

Returns the measured Inhibition for the input compound. Input: `CCCCSc1c(CNCCCCCCNCc2ccc3ccccc3c2SCCCC)ccc2ccccc12.CS(=O)(=O)O`
93

Dear colleague, I am looking for the recorded Inhibition of the following compound: `COc1ccc2nc3cc(Cl)ccc3c(N)c2c1.Cl`
100

Any idea what Inhibition was measured for `Nc1nc(N)c2c(ccc3c2ccn3Cc2cc3c(cc2Cl)OCO3)n1` ?
95

I would be grateful if you could share the reported Inhibition for `O=C(CSc1nn(-c2ccccc2)c(=S)s1)c1c[nH]c2ccccc12` .
93

Need Inhibition, item `O=C(Nc1cccc(CN2CCCN(Cc3ccc(O)cc3)CC2)c1)c1ccc(Cl)c(Cl)c1.O=C(O)C(F)(F)F`
100

Return reported Inhibition; argument: `COc1ccc(-c2ccc(NC(=O)c3cccc(F)c3)cc2)cc1CNC(C)C.O=C(O)C(F)(F)F`
97

I have this compound here, `c1ccc(CCNc2ncnc3c2[nH]c2ccccc23)cc1` , and I need its recorded Inhibition.
95

I would be grateful if you could share the reported Inhibition for `COc1ccccc1CNC(=O)c1cc(OC)c(OC)cc1NC(=O)c1cccs1` .
88

Which Inhibition is listed for `CCOC(=O)c1cc2c(CCN3C(=O)c4ccccc4C3=O)cn(C)c2cc1-c1ccncc1` ?
100

* * *

test system: Plasmodium falciparum; assay: GSK_TCMDC: Inhibition of Plasmodium falciparum 3D7 in whole red blood cells, using parasite LDH activity as an index of growth. Test compounds present at 2uM; assay type: functional
Field: Inhibition. Provide a value for each of the compounds that follow.
Reply with just the number (in %).

# input compound: `CCn1c(-c2nonc2N)nc2cnc(Oc3cccc(NC(=O)c4ccc(OCCN(C(C)C)C(C)C)cc4)c3)cc21` ; wanted: its Inhibition
97

What does the data say about its Inhibition? Entry: `CC(C)CNCc1ccc(-c2ccc(CNC3CCN(Cc4ccccc4)CC3)cc2)cc1.O=C(O)C(F)(F)F`
100

Given the entry `COc1ccc2nc(-c3ccccc3)cc(NCCN(C)C)c2c1` , report its measured Inhibition.
100

* * *

test system: HepG2; assay: GSK_TCMDC: Percent inhibition of human HepG2 cell line. Test compounds present at 10uM.; assay type: functional
Classify on Inhibition using L: < 20%; M: ≥ 20% and < 30%; H: ≥ 30%

Could you place `O=C(Cc1cccc(Cl)c1)Nc1ccc(N2CCC(NCc3ccc4ncccc4c3)CC2)cc1` in its proper category? Many thanks.
L

Hey, which category is `COc1ccccc1CCNc1ncc(F)c(N[C@@H](Cc2ccccc2)C(=O)NCCc2ccccc2)n1.O=C(O)C(F)(F)F` in, do you know?
L

Lab log: Cc1sc2ccc(Cl)cc2c1S(=O)(=O)Nc1ccc2nccc(N3CC(C)NC(C)C3)c2c1.Cl (configuration not stated) — assign Inhibition category
L

Tag the class for `CCN1CCN(Cc2ccc(-c3ccc(NS(=O)(=O)c4cccc5cccnc45)cc3)cc2)CC1.O=C(O)C(F)(F)F`
M

For the record `CC(C)(C)NS(=O)(=O)c1cc(C(=O)N2CCC(CCN3CCC(O)(c4cccc(C(F)(F)F)c4)CC3)(c3cccc(F)c3)CC2)c(Cl)cc1F` , report the class its Inhibition corresponds to.
L

Exam item: assign `Cc1cccc2nc(-c3cccc(-c4cccc(NC(=O)Cc5c[nH]cn5)c4)c3)[nH]c12` to the correct category.
H

Class? Entry: `CN(C)CCN1CCN(Cc2ccc(-c3cccc(-c4nc5ccccc5[nH]4)c3)cc2)CC1.O=C(O)C(F)(F)F`
M

For this molecule, which bin applies? `CC(C)(C)c1ccc(NC(=O)c2ccc(CN3CCCN(CC4CCCCC4)CC3)cc2)cc1.O=C(O)C(F)(F)F`
H

Class (by measured Inhibition) for `CN1CCN(c2cccc(-c3nnc(-c4cccc(OCC(=O)NCc5ccc(C(F)(F)F)cc5)c4)o3)c2)CC1`
L

Would you mind sorting CC(Cc1ccc(CNC(=O)NCc2ccc(CC(C)NCCc3cccc(Cl)c3)cc2)cc1)NCCc1cccc(Cl)c1 (configuration not stated) into the appropriate category?
H

Which Inhibition category applies to `COc1ccc2c(=O)ccn(CCN3CCC(NCc4ccc5c(n4)NC(=O)CS5)CC3)c2c1.Cl` here?
L

Entry `CN(C)c1ccc(/N=C2/N/C(=N/c3ccc(N(C)C)cc3)c3ccccc32)cc1` belongs to which category?
M

Category lookup for the molecule `Cc1[nH]c(C)c(-c2ccc(OCc3cc(C(F)(F)F)cc(C(F)(F)F)c3)nc2)c(=O)c1Cl`
L

Where would `CCN(CC)CCN(Cc1ccc(-c2ccc(C(F)(F)F)cc2)cc1)C(=O)Cn1c(CCc2cccc(F)c2F)cc(=O)c(C)c1C.O=C(O)C(O)C(O)C(=O)O` land among the classes by reported Inhibition?
H

Lab log: `CCN(CCCN1CCCCC1)c1cc(C)nc(Nc2ccc(C)cc2C)n1.O=C(O)C(F)(F)F` — assign Inhibition category
H

* * *

system: Plasmodium falciparum; assay: GSK_TCMDC: Inhibition of Plasmodium falciparum Dd2 in whole red blood cells, using parasite LDH activity as an index of growth. Test compounds present at 2uM; assay type: functional
Use MET when the recorded Inhibition is no lower than 80%; use NOT MET when it is lower.

Exam item: decide whether the reported Inhibition for CCC(NC(=O)c1ccccc1NC(=O)c1ccc(C)cc1)C(=O)OC (stereo not drawn) is at least 80%.
MET

State whether the measured Inhibition reaches 80%, counting equality as reaching it, for `COc1ccc(-c2csc(NC(=O)CCC(=O)O)n2)cc1OC`
NOT MET

Inhibition >= 80% for `CC[C@H](N/C(=N\c1ccc(-c2ccccc2)cc1)Nc1ccc(C#N)cc1O)c1ccccc1` ?
MET

Inhibition >= 80% for `CCOc1cc(CC)ccc1C1CCN(CCN2CCC(CNC(=O)c3ccc(-c4ccc(C#N)cc4)cc3)CC2)CC1` ?
MET

Is the recorded value of Inhibition equal to or greater than 80% for this molecule? `COc1ccc(CNC(=O)NC2CCN(c3ccnc(Nc4ccc(F)cc4)n3)CC2)cc1`
NOT MET

Answer whether Inhibition of `CCNC(=O)Nc1cccc(-c2cccc(-c3nc4cccc(C)c4[nH]3)c2)c1` is greater than or equal to 80%.
NOT MET

* * *

test system: Plasmodium falciparum; assay: GSK_TCMDC: Inhibition of Plasmodium falciparum Dd2 in whole red blood cells, using parasite LDH activity as an index of growth. Test compounds present at 2uM; type: functional
Hi there, I'd appreciate the recorded Inhibition for every entry that follows.
Include the unit after the number when you answer.

For the compound shown here, O=C(/C=C/c1ccc(Cl)c(Cl)c1)NC1CCC(CN2CCC(c3nc4ccccc4n3CCCO)CC2)CC1 (stereo not drawn) , give the reported Inhibition.
28%

Look up Inhibition: `COc1cc2nc(NCCCO)nc(Nc3ccc(Oc4ccccc4)cc3)c2cc1OC`
100%

So what's the measured Inhibition for this one? Cc1noc(-c2ccc3c(c2)CCN(CCC2CCC(NC(=O)/C=C/c4ccc(F)cc4)CC2)CC3)n1.Cl (stereo not drawn)
39%

* * *

system: HepG2; test: GSK_TCMDC: Percent inhibition of human HepG2 cell line. Test compounds present at 10uM.; format: functional
The label y is reserved for Inhibition strictly under 20%; n covers values equal to or above it.

I'd appreciate it if you could check whether `Cc1csc(-c2ncc(OC[C@@H](N)Cc3ccccc3)cc2-c2ccc3[nH]nc(C)c3c2)c1.O=C(O)C(F)(F)F` has Inhibition smaller than 20%.
n

is_below(Inhibition, 20%) for `Cc1ccc(S(=O)(=O)N(CCCN2CCN(C)CC2)Cc2csc(-c3ccc(CNCc4ccccc4)cc3)n2)cc1.O=C(O)C(F)(F)F` ?
y

A record lists CC(=NO)C1=C(O)C(c2ccccc2)N(c2ccccc2)C1=O (configuration not stated) . Is its Inhibition below 20%?
y

API: query returns whether the molecule falls strictly under 20% in Inhibition. Query: `CC(C)COc1ccc(Cl)cc1Cc1ccc(-c2nc3c(F)cccc3[nH]2)o1`
y

Check if Inhibition falls below 20% for `CN(C)CCCOc1ccc(CNCc2cccc(Oc3ccc(Cl)cc3)c2)cc1.O=C(O)C(F)(F)F` .
n

Lab log: compare recorded Inhibition with 20%; is it strictly lower for `O=[N+]([O-])c1cc(/C=N/Nc2nc3ccccc3[nH]2)ccc1O` ?
y

Strictly below 20% in Inhibition? `N#Cc1ccc(N/C(=N\c2ccc(-c3ccccc3)cc2)NCCc2c[nH]c3ccccc23)c(O)c1`
y

Does the reported Inhibition of O=C(/C=C/c1ccc(Cl)c(Cl)c1)N1CCCC(CCCN2CCC(c3c[nH]c4ccccc34)CC2)C1 (configuration not stated) stay below 20%?
n

Confirm or reject: Inhibition of CCc1ccc(CN2CCC(NC(=O)c3cc(-c4ccc(N(C)C)cc4)cs3)C2)cc1.O=C(O)C(F)(F)F (configuration not stated) lies strictly below 20%
n

Problem: For the molecule `Br.CCCc1cccc(OC)c1OCCCON1C(N)=NC(N)=NC1(C)C` , is Inhibition under 20%?
n

Answer whether the molecule `CCOc1ccc(-c2nonc2NC(=O)c2ccc(F)cc2)cc1OCC` has Inhibition strictly less than 20%
n

For `Cc1ccc(NC(=O)c2ccc(CN3CCCN(CC4CCCCC4)CC3)cc2)cc1C.O=C(O)C(F)(F)F` , is the recorded Inhibition below the cut-off of 20%?
n

Please indicate whether the reported Inhibition of `CN(C)CCN(Cc1ccccc1)c1ccc([N+](=O)[O-])cc1C(F)(F)F.O=C(O)C(F)(F)F` is strictly below 20%.
n

Please state whether Inhibition is below 20% for `O=C(Cn1c(SCc2cccc(F)c2F)cc(=O)c2ccccc21)N(CCN1CCCCC1)Cc1ccc(-c2ccc(C(F)(F)F)cc2)cc1.O=C(O)C(O)C(O)C(=O)O`
n

In plain terms, does `Cc1ccc(NC(=O)c2cccc(N3CCN(c4ccncc4)CC3)c2)cc1F.O=C(O)C(F)(F)F` come in under 20% for Inhibition?
n

Is it true that Inhibition reported for `c1ccc(Oc2ccc(Nc3nc(NCCc4c[nH]cn4)nc(NC4CCCC4)n3)cc2)cc1` is less than 20%?
y

Could you please tell me whether Inhibition recorded for Cc1cc(=O)oc2c1ccc1oc(C(O)c3ccc(Cl)cc3)c(C)c12 (configuration not stated) is less than 20%?
y

Inhibition strictly < 20% for this molecule? CC1N=C(N)N=C(N)N1OCc1cccc2ccccc12 (configuration not stated)
n

Does this molecule meet the criterion Inhibition < 20%? `Cn1cnc2c(Nc3ccncc3)nc(-c3ccc(OC(F)(F)F)cc3)nc21.O=C(O)C(F)(F)F`
n

Consider `CN(CCCN)CCCNc1ccnc2cc(Cl)ccc12` . Does its Inhibition lie strictly below 20%?
y

Does the reported Inhibition of the following molecule sit strictly below 20%? Cc1nc(-c2cccc(Nc3nccc(NCC(O)c4ccc(C(F)(F)F)cc4)n3)c2)cs1 (configuration not stated)
n

Could you please tell me whether Inhibition recorded for CCCC(C)NC(=O)C(N)Cc1cccc(I)c1.O=C(O)C(F)(F)F (configuration not stated) is less than 20%?
y

Problem: For the molecule `CCCc1cc(=O)[nH]c(-n2nc(C)cc2NC(=O)c2cc3ccccc3o2)n1` , is Inhibition under 20%?
n

Is Inhibition of `O=C(NCCCCCCNCc1ccc(-c2ccccc2)cc1)Nc1ccc(Cl)c(Cl)c1` strictly below 20%?
y

Dear reviewer, please state whether `COCCN1CCN(Cc2cccc(-c3ccc(-c4nc5ccccc5[nH]4)cc3)c2)CC1.O=C(O)C(F)(F)F` has Inhibition strictly beneath 20%.
y

Confirm or reject: Inhibition of `CN(C)CCCOc1ccc(CCCCc2ccc(Cl)cc2C(=O)c2ccccc2)cc1.O=C(O)C(=O)O` lies strictly below 20%
y
